# ASSAY_REMARKS: Liver hepatocyte stability, rat
# Format: in vitro ADME
# ASSAY_SETUP: rat hepatocytes, 3 μM compound, 60 min, >80% remaining at 60 min denoted >186, read-out: Liver Hepatocyte Stability: t1/2 (min)
# half-life per record follows
Report only the number, with the unit min understood.

Example entries begin here.
[[record]]
chemical_structure = "CC(C)Nc1ccc(-c2c(C(=O)N[C@H]3N=C(c4ccccc4)c4cccc(F)c4NC3=O)cnn2C2CCOCC2)c(F)n1"
observed_result = 120

[[record]]
chemical_structure = "O=C(N[C@H]1N=C(c2ccccc2)c2cccc(F)c2NC1=O)c1cn(C2CCOCC2)nc1-c1ccc(NC2CC2)nc1F"
observed_result = 376

[[record]]
chemical_structure = "CC(C)Nc1ccc(-c2c(C(=O)N[C@H]3N=C(c4ccccc4)c4ccccc4NC3=O)cnn2C2CCOCC2)c(F)n1"
observed_result = 96.7


IN: May I ask what half-life has been recorded for `O=C(N[C@H]1N=C(c2ccccc2)c2ccccc2NC1=O)c1cnn(C2CCOCC2)c1-c1ccc(NC2CC2)nc1F` ?
OUT: 115

* * *

# ASSAY_REMARKS: Dog pharmacokinetics in vivo
# ASSAY_SETUP: plasma, male Beagle dogs, 8 h, Dose: IV/PO 0.5/4 mg/kg, read-out: C 8 h
PROPERTY_LABEL: concentration at 8 h (ng/mL)
Report only the number, with the unit ng/mL understood.

IN: May I ask what concentration at 8 h has been recorded for CCNc1ccc(-c2c(C(=O)N[C@H]3N=C(c4ccccc4)c4cccc(F)c4NC3=O)cnn2C2CCOCC2)c(F)n1 [Example 24] ?
OUT: 67

IN: May I ask what concentration at 8 h has been recorded for CCn1ncc(C(=O)N[C@H]2N=C(c3ccccc3)c3ccccc3NC2=O)c1-c1ccc(NC2CC2)nc1F [Example 4] ?
OUT: 56.1

IN: May I ask what concentration at 8 h has been recorded for CC(C)Nc1ccc(-c2c(C(=O)N[C@H]3N=C(c4ccccc4)c4cccc(F)c4NC3=O)cnn2C2CCOCC2)c(F)n1 [Example 22] ?
OUT: 281

* * *

# ASSAY_REMARKS: Liver microsomal stability, rat
# Format: in vitro ADME
# ASSAY_SETUP: pH 7.4; rat liver microsomes, 0.5 mg/mL protein, 1 μM compound, NADPH; >80% remaining at 45 min denoted >140; read-out: Liver Microsomal Stability: t1/2 (min); rat
With a cut-off of 70 min, any half-life strictly below it is called MET; any half-life meeting it or above is called NOT MET.

Previously resolved entries follow.
[[record]]
molecule = "CCNc1ccc(-c2c(C(=O)N[C@H]3N=C(c4ccccc4)c4ccccc4NC3=O)c(C)nn2CC)c(F)n1 [Example 10]"
assigned_class = "MET"

[[record]]
molecule = "CCn1ncc(C(=O)N[C@H]2N=C(c3ccccc3)c3cccc(F)c3NC2=O)c1-c1ccc(NC2CC2)nc1F [Example 11]"
assigned_class = "NOT MET"

[[record]]
molecule = "CCc1ccc(-c2c(C(=O)N[C@H]3N=C(c4ccccc4)c4cccc(F)c4NC3=O)cnn2C2CCOCC2)c(F)n1 [Example 53]"
assigned_class = "NOT MET"

[[record]]
molecule = "CCc1ccc(-c2c(C(=O)N[C@H]3N=C(c4ccccc4)c4cccc(F)c4NC3=O)cnn2C2CCOCC2)c(F)c1 [Example 47]"
assigned_class = "MET"


Turning now to a further record.
IN: # TODO verify half-life < 70 min strictly for this molecule: O=C(N[C@H]1N=C(c2ccccc2)c2ccccc2NC1=O)c1cn(C2CCC(F)(F)CC2)nc1-c1ccc(NC2CC2)nc1F [Example 34]
OUT: NOT MET

* * *

# ASSAY_REMARKS: Dog pharmacokinetics in vivo
# ASSAY_SETUP: plasma, male Beagle dogs, PO 3 mg/kg, read-out: PO AUClast
PROPERTY_LABEL: AUC(0-t)

IN: May I ask what AUC(0-t) has been recorded for O=C(N[C@H]1N=C(c2ccccc2)c2cccc(F)c2NC1=O)c1cnn(C2CCOCC2)c1-c1ccc(NC2CC2)nc1F [Example 21] ?
OUT: 3610 ng·h/mL

* * *

# ASSAY_REMARKS: Rat pharmacokinetics in vivo
# ASSAY_SETUP: rat, in vivo; male Sprague Dawley rats, 8 h, doses 1 mg/kg (IV) and 10 mg/kg (PO); read-out: C 8 h
PROPERTY_LABEL: concentration at 8 h (ng/mL)
Report only the number, with the unit ng/mL understood.

IN: May I ask what concentration at 8 h has been recorded for CCn1ncc(C(=O)N[C@H]2N=C(c3ccccc3)c3ccccc3NC2=O)c1-c1ccc(NC(C)C)nc1F [Example 3] ?
OUT: 108

* * *

# ASSAY_REMARKS: Liver hepatocyte stability, human
# Assay type: in vitro ADME
# ASSAY_SETUP: human hepatocytes, 3 μM compound, 60 min, >80% remaining at 60 min denoted >186, read-out: Liver Hepatocyte Stability: t1/2 (min)
PROPERTY_LABEL: half-life at 3 µM (min)
Report only the number, with the unit min understood.

IN: May I ask what half-life at 3 µM has been recorded for CCn1ncc(C(=O)N[C@H]2N=C(c3ccccc3)c3ccccc3NC2=O)c1-c1ccc(NC(C)C)nc1F [Example 3] ?
OUT: 52.6

* * *

# ASSAY_REMARKS: Liver hepatocyte stability, rat
# Format: in vitro ADME
# ASSAY_SETUP: rat hepatocytes, 3 μM compound, 60 min, >80% remaining at 60 min denoted >186, read-out: Liver Hepatocyte Stability: t1/2 (min)
PROPERTY_LABEL: half-life at 3 µM

IN: May I ask what half-life at 3 µM has been recorded for CCn1ncc(C(=O)N[C@H]2N=C(c3ccccc3)c3ccccc3NC2=O)c1-c1ccc(NC(C)C)nc1F [Example 3] ?
OUT: 73.8 min

* * *

# ASSAY_REMARKS: Dog pharmacokinetics in vivo
# ASSAY_SETUP: plasma, male Beagle dogs, Dose: IV/PO 0.5/4 mg/kg
# bioavailability per record follows
Report only the number, with the unit % understood.

Example entries begin here.
[[record]]
chemical_structure = "CC(C)Nc1ccc(-c2c(C(=O)N[C@H]3N=C(c4ccccc4)c4cccc(F)c4NC3=O)cnn2C2CCOCC2)c(F)n1"
observed_result = 40.1

[[record]]
chemical_structure = "CCNc1ccc(-c2c(C(=O)N[C@H]3N=C(c4ccccc4)c4cccc(F)c4NC3=O)cnn2C2CCOCC2)c(F)n1"
observed_result = 22.7


Switching to the query record.
IN: May I ask what bioavailability has been recorded for `CCn1ncc(C(=O)N[C@H]2N=C(c3ccccc3)c3ccccc3NC2=O)c1-c1ccc(NC2CC2)nc1F` ?
OUT: 41.5

* * *

# ASSAY_REMARKS: Rat pharmacokinetics in vivo
# ASSAY_SETUP: rat, in vivo; male Sprague Dawley rats, doses 1 mg/kg (IV) and 10 mg/kg (PO)
Please mark true (1) if the recorded Cmax is equal to or greater than 1000 ng/mL, and false (0) if it falls below.

IN: Confirm if Cmax reported for the molecule `CCn1ncc(C(=O)N[C@H]2N=C(c3ccccc3)c3ccccc3NC2=O)c1-c1ccc(NC2CC2)nc1F` is 1000 ng/mL or above.
OUT: true (1)

* * *

# ASSAY_REMARKS: Rat pharmacokinetics in vivo
# ASSAY_SETUP: rat, in vivo; male Sprague Dawley rats, IV 1 mg/kg
# Vd per record follows
Report only the number, with the unit L/kg understood.

Example entries begin here.
[[record]]
compound = "CC(C)Nc1ccc(-c2c(C(=O)N[C@H]3N=C(c4ccccc4)c4ccccc4NC3=O)cnn2C2CCOCC2)c(F)n1 [Example 23]"
property_label = "Vd"
observed_result = 1.7

[[record]]
compound = "CCn1ncc(C(=O)N[C@H]2N=C(c3ccccc3)c3cccc(F)c3NC2=O)c1-c1ccc(NC2CC2)nc1F [Example 11]"
property_label = "Vd"
observed_result = 2

[[record]]
compound = "O=C(N[C@H]1N=C(c2ccccc2)c2cccc(F)c2NC1=O)c1cnn(C2COC2)c1-c1ccc(NC2CC2)nc1F [Example 19]"
property_label = "Vd"
observed_result = 1.6

[[record]]
compound = "O=C(N[C@H]1N=C(c2ccccc2)c2cccc(F)c2NC1=O)c1cnn(C2CCOCC2)c1-c1ccc(NC2CC2)nc1F [Example 21]"
property_label = "Vd"
observed_result = 2.1

[[record]]
compound = "CCn1ncc(C(=O)N[C@H]2N=C(c3ccccc3)c3ccccc3NC2=O)c1-c1ccc(NC2CC2)nc1F [Example 4]"
property_label = "Vd"
observed_result = 2

[[record]]
compound = "CC(C)(C)n1cc(C(=O)N[C@H]2N=C(c3ccccc3)c3cccc(F)c3NC2=O)c(-c2ccc(NC3CC3)nc2F)n1 [Example 30]"
property_label = "Vd"
observed_result = 1.4

[[record]]
compound = "CCn1cc(C(=O)N[C@H]2N=C(c3ccccc3)c3ccccc3NC2=O)c(-c2ccc(NC3CC3)nc2F)n1 [Example 25]"
property_label = "Vd"
observed_result = 0.9

[[record]]
compound = "CCn1cc(C(=O)N[C@H]2N=C(c3ccccc3)c3cccc(F)c3NC2=O)c(-c2ccc(NC3CC3)nc2F)n1 [Example 26]"
property_label = "Vd"
observed_result = 1.1


IN: May I ask what Vd has been recorded for CCn1ncc(C(=O)N[C@H]2N=C(c3ccccc3)c3ccccc3NC2=O)c1-c1ccc(NC(C)C)nc1F [Example 3] ?
OUT: 2.4

All values here come from patent US20220409629A1.
